Recorded values, source patent US10407409B2.

systemUnderTest: PHD2 enzyme (residues 181-417) (Homo sapiens (Human), UniProt Q9GZT9)
Sequence (Q9GZT9 181-417): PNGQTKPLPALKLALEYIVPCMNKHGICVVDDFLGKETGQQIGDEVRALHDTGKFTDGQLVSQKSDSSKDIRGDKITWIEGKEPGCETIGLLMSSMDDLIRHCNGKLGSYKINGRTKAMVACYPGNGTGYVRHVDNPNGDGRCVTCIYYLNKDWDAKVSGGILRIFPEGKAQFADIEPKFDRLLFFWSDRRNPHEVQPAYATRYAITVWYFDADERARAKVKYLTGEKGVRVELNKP
methodDescription: Inhibition of PHD enzyme (LC/MS peptide hydroxylation assay)
Type: biochemical
experimentalContext: PHD2 (residues 181-417) 5 nM, 60 min pre-incubation; -log(IC50), IC50 molar
We begin with a simple list: items and their reported PHD Inhibition (pIC50).
attributeMeasured: PHD Inhibition (pIC50)

{"molecule": "COc1cc(C#N)ccc1-c1cnn(-c2ccc(C(=O)NCC3CCOCC3)cn2)c1O", "recordedValue": 7.3}
{"molecule": "N#Cc1ccc(-c2cnn(-c3ccc(C(=O)NCC(F)(F)F)cn3)c2O)cc1", "recordedValue": 7.03}
{"molecule": "COc1cc(-c2cnn(-c3ccc(C(=O)NCC4CCCCO4)cn3)c2O)ccn1 (centres unmarked)", "recordedValue": 8}
{"molecule": "Cc1cc(C#N)ccc1-c1cnn(-c2ccc(C(=O)NCCCN3CCOCC3)cn2)c1O", "recordedValue": 8.2}
{"molecule": "CCN1CCN(C(=O)c2ccc(-n3ncc(-c4ccc(C#N)c(F)c4C)c3O)nc2)CC1", "recordedValue": 8.27}
{"molecule": "CCN1CCN(C(=O)c2ccc(-n3ncc(-c4ccc(C#N)cc4C)c3O)nc2)C[C@H]1C", "recordedValue": 8.25}
{"molecule": "Cc1cc(C#N)ccc1-c1cnn(-c2ccc(C(=O)NC(C)(C)CN(C)C)cn2)c1O", "recordedValue": 7.8}
{"molecule": "Cc1cc(C#N)ccc1-c1cnn(-c2ccc(C(=O)N3CCN4CCC3CC4)cn2)c1O", "recordedValue": 7.88}
{"molecule": "CCNC(=O)c1ccc(-n2ncc(-c3ccc(C#N)cc3C)c2O)nc1", "recordedValue": 8.3}
{"molecule": "CC[C@H](CC#N)NC(=O)c1ccc(-n2ncc(-c3ccc(C#N)cc3)c2O)nc1", "recordedValue": 7.05}
{"molecule": "COCCC1(NC(=O)c2ccc(-n3ncc(-c4ccc(C#N)cc4C)c3O)nc2)CC1", "recordedValue": 7.21}
{"molecule": "Cc1cc(C#N)ccc1-c1cnn(-c2ccc(C(=O)N(C)CCCN(C)C)cn2)c1O", "recordedValue": 7.59}
{"molecule": "CN1CCOC(CNC(=O)c2ccc(-n3ncc(-c4ccc(C#N)cc4)c3O)nc2)C1 (centres unmarked)", "recordedValue": 7.8}
{"molecule": "CCN1CCC(NC(=O)c2ccc(-n3ncc(-c4ccc(C#N)cc4C)c3O)nc2)CC1", "recordedValue": 7.9}
{"molecule": "Cc1c(-c2cnn(-c3ccc(C(=O)N4CCN(C5CC5)CC4)cn3)c2O)ccc(C#N)c1F", "recordedValue": 8.39}
{"molecule": "CCN1CCN(C(=O)c2ccc(-n3ncc(-c4cc(F)c(C#N)cc4C)c3O)nc2)C[C@H]1C", "recordedValue": 8.48}
{"molecule": "COc1cc(-c2cnn(-c3ccc(C(=O)NCCCN4CCCC4)cn3)c2O)ccn1", "recordedValue": 7.3}
